Please provide measured relative viability for the entries that follow.
Test system: NCI-H441
method-notes: relative viability (nuclei count vs DMSO), 5 days (fraction); higher = more cells survive
measurement-conditions: first compound 1 µM
Could you keep your reply to the number by itself?

INPUT: Requested read-out: relative viability. Entry: O=c1cc(N2CCOCC2)oc2c(-c3cccc4c3sc3ccccc34)cccc12 + C[C@@H](Oc1cc(-c2cnn(C3CCNCC3)c2)cnc1N)c1c(Cl)ccc(F)c1Cl [Crizotinib] (partner 1 µM)
OUTPUT: 0.756

INPUT: And for CCN(CC)CCCCNc1ncc2cc(-c3cc(OC)cc(OC)c3)c(NC(=O)NC(C)(C)C)nc2n1 + Cc1cc(Nc2cc(N3CCN(C)CC3)nc(Sc3ccc(NC(=O)C4CC4)cc3)n2)n[nH]1 [Tozasertib] (partner 0.1 µM) ?
OUTPUT: 0.597

INPUT: And for CCN(CC)CCCCNc1ncc2cc(-c3cc(OC)cc(OC)c3)c(NC(=O)NC(C)(C)C)nc2n1 + O=C(CCCCCCC(=O)Nc1ccccc1)NO [Vorinostat] (partner 1 µM) ?
OUTPUT: 0.826

INPUT: And for CCN(CC)CCCCNc1ncc2cc(-c3cc(OC)cc(OC)c3)c(NC(=O)NC(C)(C)C)nc2n1 + CC1(C)CCC(c2ccc(Cl)cc2)=C(CN2CCN(c3ccc(C(=O)NS(=O)(=O)c4ccc(N[C@H](CCN5CCOCC5)CSc5ccccc5)c(S(=O)(=O)C(F)(F)F)c4)cc3)CC2)C1 [Navitoclax] (partner 0.5 µM) ?
OUTPUT: 0.618

INPUT: And for O=c1cc(N2CCOCC2)oc2c(-c3cccc4c3sc3ccccc34)cccc12 + O=C(CCCCCCC(=O)Nc1ccccc1)NO [Vorinostat] (partner 1 µM) ?
OUTPUT: 0.724
